Please respond with reported EC50 for every item in the list.
- Tested on: HRE-bla ME-180 cells
- procedure.text: Reporter gene assay (HRE-bla ME-180 HIF reporter, GeneBLAzer)
- Assay type: cell-based, human
- condition.notes: 24 hour normoxia
Bridge positions count the residues as written; N and C are the ends. Square brackets hold non-standard residues; d marks the D form. Peptide text beside a SMILES is read from it. R8 = C=CCCCCCC[C@@](C)(N)C(=O)O; S5 = C=CCCC[C@](C)(N)C(=O)O; Nle = CCCC[C@H](N)C(=O)O

Suppose we examine the compound CCCC[C@@H]1NC(=O)[C@H](CC(C)C)NC(=O)[C@H]([C@@H](C)O)NC(=O)[C@@](C)(NC(=O)[C@H](C)NC(=O)[C@H](CC(=O)O)NC(=O)[C@@H](NC(=O)[C@H](Cc2ccccc2)NC(C)=O)[C@@H](C)CC)CCCC=CCCCC2(CCCC=CCCC[C@](C)(C(=O)N[C@@H](CCCC)C(=O)N[C@@H](C)C(=O)N[C@@H](CC(C)C)C(N)=O)NC(=O)[C@H]([C@@H](C)CC)NC(=O)[C@H](C(C)C)NC(=O)[C@H](CO)NC2=O)NC1=O (some centres unmarked) ; what EC50 value has been reported?
> 30 µM

I am curious: what EC50 value has been reported for CCCC[C@H](NC(=O)[C@H](CCC(=O)O)NC(=O)[C@@H](NC(=O)[C@@H](NC(=O)[C@H](C)NC(=O)[C@]1(C)CCCC=CCCC[C@](C)(NC(=O)[C@H](CCC(=O)O)NC(=O)[C@H](CC(=O)O)NC(=O)[C@@H](NC(=O)[C@H](Cc2ccccc2)NC(C)=O)[C@@H](C)CC)C(=O)N[C@@H](C(C)C)C(=O)N[C@@H](CC(C)C)C(=O)N[C@@H](CCCC)C(=O)N1)C(C)C)[C@@H](C)CC)C(=O)N[C@@H](C)C(=O)N[C@@H](CC(C)C)C(N)=O [SP-142] (Ac-FIDE[S5]VL[Nle][S5]AVIE[Nle]AL-NH2; staple 5-9) ?
> 30 µM

What does the record list as EC50 for CCCC[C@H](NC(=O)[C@H](CC(C)C)NC(=O)[C@@H](NC(=O)[C@H](CCC(=O)O)NC(=O)[C@H](CCC(=O)O)NC(=O)[C@H](CC(=O)O)NC(=O)[C@@H](NC(=O)[C@H](Cc1ccccc1)NC(C)=O)[C@@H](C)CC)C(C)C)C(=O)N[C@@]1(C)CCCC=CCCC[C@@](C)(C(=O)N[C@@H](CCSC)C(=O)N[C@@H](C)C(=O)N[C@@H](CC(C)C)C(N)=O)NC(=O)[C@H]([C@@H](C)CC)NC(=O)[C@H](C(C)C)NC(=O)[C@H](CC(C)C)NC1=O [SP-224] (Ac-FIDEEVL[Nle][S5]LVI[S5]MAL-NH2; staple 9-13) ?
> 30 µM

Can you share its EC50? I mean this compound: CCCC[C@@H]1NC(=O)[C@H](CC(C)C)NC(=O)[C@](C)(NC(=O)[C@H](CCC(=O)O)NC(=O)[C@H](CCC(=O)O)NC(=O)[C@H](CC(=O)O)NC(=O)[C@@H](NC(=O)[C@H](Cc2ccccc2)NC(C)=O)[C@@H](C)CC)CCCCCCC=CCCC[C@@](C)(C(=O)N[C@@H](CCCC)C(=O)N[C@@H](C)C(=O)N[C@@H](CC(C)C)C(N)=O)NC(=O)[C@H]([C@@H](C)CC)NC(=O)[C@H](C(C)C)NC(=O)[C@H](CC(C)C)NC(=O)[C@H](CO)NC1=O [SP-199] (Ac-FIDEE[R8]L[Nle]SLVI[S5][Nle]AL-NH2; staple 6-13)
> 30 µM

Quick check: EC50 of CCCC[C@H](NC(=O)[C@H](CCC(=O)O)NC(=O)[C@@H](NC(=O)[C@@H](NC(=O)[C@H](CC(C)C)NC(=O)[C@]1(C)CCCC=CCCC[C@](C)(NC(=O)[C@H](CCC(=O)O)NC(=O)[C@H](CC(=O)O)NC(=O)[C@@H](NC(=O)[C@H](Cc2ccccc2)NC(C)=O)[C@@H](C)CC)C(=O)N[C@@H](C)C(=O)N[C@@H](CC(C)C)C(=O)N[C@@H](CCCC)C(=O)N1)C(C)C)[C@@H](C)CC)C(=O)N[C@@H](C)C(=O)N[C@@H](CC(C)C)C(N)=O [SP-138] (Ac-FIDE[S5]AL[Nle][S5]LVIE[Nle]AL-NH2; staple 5-9) ?
> 30 µM

Consider the compound shown here: CCCC[C@@H]1NC(=O)[C@H](CC(C)C)NC(=O)[C@H](CC(N)=O)NC(=O)[C@@](C)(NC(=O)[C@H](CCC(=O)O)NC(=O)[C@H](CC(=O)O)NC(=O)[C@@H](NC(=O)[C@H](Cc2ccccc2)NC(C)=O)[C@@H](C)CC)CCCC=CCCCC2(CCCC=CCCC[C@](C)(C(=O)N[C@@H](CCCC)C(=O)N[C@@H](C)C(=O)N[C@@H](CC(C)C)C(N)=O)NC(=O)[C@H]([C@@H](C)CC)NC(=O)[C@H](C(C)C)NC(=O)[C@H](CC(C)C)NC2=O)NC1=O (some centres unmarked) What is its recorded EC50?
5 to 15 µM

# EC50 lookup, item CC[C@H](C)[C@H](NC(=O)[C@H](Cc1ccccc1)NC(C)=O)C(=O)N[C@@H](CC(=O)O)C(=O)N[C@@H](CCC(=O)O)C(=O)N[C@]1(C)CCCCCCC=CCCC[C@@](C)(C(=O)N[C@@H](CCC(=O)O)C(=O)N[C@@H](CCSC)C(=O)N[C@@H](C)C(=O)N[C@@H](CC(C)C)C(N)=O)NC(=O)[C@H](C(C)C)NC(=O)[C@H](CC(C)C)NC(=O)[C@H](CO)NC(=O)[C@H](CCSC)NC(=O)[C@H](CC(C)C)NC(=O)[C@H](C(C)C)NC1=O [SP-177] (Ac-FIDE[R8]VLMSLV[S5]EMAL-NH2; staple 5-12)
5 to 15 µM

Consider the compound shown here: CCCC[C@H](NC(=O)[C@H](CCC(=O)O)NC(=O)[C@@H](NC(=O)[C@@H](NC(=O)[C@H](CC(C)C)NC(=O)[C@]1(C)CCCC=CCCC[C@](C)(NC(=O)[C@H](CCC(=O)O)NC(=O)[C@H](CC(=O)O)NC(=O)[C@H](CO)NC(=O)[C@H](Cc2ccccc2)NC(C)=O)C(=O)N[C@@H](C(C)C)C(=O)N[C@@H](CC(C)C)C(=O)N[C@@H](CCCC)C(=O)N1)C(C)C)[C@@H](C)CC)C(=O)N[C@@H](C)C(=O)N[C@@H](CC(C)C)C(N)=O [SP-154] (Ac-FSDE[S5]VL[Nle][S5]LVIE[Nle]AL-NH2; staple 5-9) What is its recorded EC50?
> 30 µM
